Biological target: human Edg-1 receptor (Homo sapiens)
Construct: FLAG (N); expressed in transfected cells; membrane preparation
Sequence (P21453 whole entry): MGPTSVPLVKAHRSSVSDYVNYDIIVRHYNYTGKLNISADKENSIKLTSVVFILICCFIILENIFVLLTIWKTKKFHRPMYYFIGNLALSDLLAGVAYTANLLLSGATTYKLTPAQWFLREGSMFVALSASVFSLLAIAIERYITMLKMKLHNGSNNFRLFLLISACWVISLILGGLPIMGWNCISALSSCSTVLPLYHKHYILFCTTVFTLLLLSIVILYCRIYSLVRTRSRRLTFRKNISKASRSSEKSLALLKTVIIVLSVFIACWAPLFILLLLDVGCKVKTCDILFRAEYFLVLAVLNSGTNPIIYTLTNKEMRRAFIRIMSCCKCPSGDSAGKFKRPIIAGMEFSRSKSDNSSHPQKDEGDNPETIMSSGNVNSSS
Assay: GTP-γ-S assay using human Edg-1 receptors (scintillation proximity assay, CHO Flp-In cell membrane preparation)
Type: biochemical
Settings: test compound at 10 μM; high control 10 μM S1P regarded as 100% activation; [35S]GTP-γ-S binding, triplicate; read-out: % Activation (Edg-1 receptor activation in percent of the activation by 10 μM S1P)
recorded.metric: activation at 10 µM
Kindly report the value followed by its unit.

CCCOc1nc(Oc2cccc(C(F)(F)F)c2F)nc2oc(-c3cc(C)c(OCC(=O)O)c(C)c3)nc12 [Example 72]    48%

Query string: Return reported activation at 10 µM; argument: CCCOc1nc(Oc2ccc3ccccc3c2)nc2oc(-c3cc(C)c(OCC(=O)O)c(C)c3)nc12 [Example 57]
Result string: 58%

Query string: Further, for CCCOc1nc(Oc2cc(C)ccc2F)nc2oc(-c3cc(C)c(OCC(=O)O)c(C)c3)nc12 [Example 45] ?
Result string: 67%

Query string: Further, for CCCOc1nc(OCC2CCCO2)nc2oc(-c3cc(C)c(OCC(=O)O)c(C)c3)nc12 (stereo not shown) [Example 19] ?
Result string: 84%

Query string: Further, for CCCOc1nc(Oc2ccc(C)c(Cl)c2)nc2oc(-c3cc(C)c(OCC(=O)O)c(C)c3)nc12 [Example 55] ?
Result string: 66%

Query string: Further, for CCCOc1nc(Oc2cccc(Cl)c2C)nc2oc(-c3cc(C)c(OCC(=O)O)c(C)c3)nc12 [Example 54] ?
Result string: 107%

Query string: Further, for CCCOc1nc(Oc2ccc(F)c(C(F)(F)F)c2)nc2oc(-c3cc(C)c(OCC(=O)O)c(C)c3)nc12 [Example 74] ?
Result string: 61%

Query string: Further, for CCCOc1nc(OCCC)c2nc(-c3cc(C)c(OCC(=O)O)c(C)c3)oc2n1 [Example 15] ?
Result string: 98%

Query string: Further, for CCCOc1nc(Oc2ccc(C(F)(F)F)cc2)nc2oc(-c3cc(C)c(OCC(=O)O)c(C)c3)nc12 [Example 68] ?
Result string: 69%

Query string: Further, for CCCOc1nc(Oc2ccccc2OC(F)(F)F)nc2oc(-c3cc(C)c(OCC(=O)O)c(C)c3)nc12 [Example 71] ?
Result string: 62%

Query string: Further, for CCCOc1nc(OCCC(F)(F)F)nc2oc(-c3cc(C)c(OCC(=O)O)c(C)c3)nc12 [Example 16] ?
Result string: 107%

====

Target: human Edg-1 receptor (Homo sapiens)
Construct: FLAG (N); expressed in transfected cells; membrane preparation
Assay: GTP-γ-S assay using human Edg-1 receptors (scintillation proximity assay, CHO Flp-In cell membrane preparation)
Format: biochemical
Conditions: test compound at 10 μM; high control 10 μM S1P regarded as 100% activation; [35S]GTP-γ-S binding, triplicate; read-out: % Activation (Edg-1 receptor activation in percent of the activation by 10 μM S1P)
Would you mind sorting the entries by activation at 10 µM according to these classes? class A: < 80%; class B: ≥ 80% and < 90%; class C: ≥ 90%

CCCOc1nc(Oc2ccccc2)nc2oc(-c3cc(C)c(OCC(=O)O)c(C)c3)nc12 [Example 9]    class B
CCCOc1nc(Oc2ccc(F)cc2Cl)nc2oc(-c3cc(C)c(OCC(=O)O)c(C)c3)nc12 [Example 61]    class C
CCCOc1nc(Oc2ccc(C)cc2)nc2oc(-c3cc(C)c(OCC(=O)O)c(C)c3)nc12 [Example 31]    class A
CCCOc1nc(Oc2cncc(F)c2)nc2oc(-c3cc(C)c(OCC(=O)O)c(C)c3)nc12 [Example 37]    class C
CCCOc1nc(Oc2cc(F)ccc2Cl)nc2oc(-c3cc(C)c(OCC(=O)O)c(C)c3)nc12 [Example 65]    class C
CCOc1nc(Oc2cccc(Cl)c2)nc2oc(-c3cc(C)c(OCC(=O)O)c(C)c3)nc12 [Example 38]    class A
CCCOc1nc(Oc2ccc(C)c(F)c2)nc2oc(-c3cc(C)c(OCC(=O)O)c(C)c3)nc12 [Example 6]    class A
CCCOc1nc(Oc2ccccc2C(F)(F)F)nc2oc(-c3cc(C)c(OCC(=O)O)c(C)c3)nc12 [Example 69]    class A
CCCOc1nc(Oc2cccc(OC)c2)nc2oc(-c3cc(C)c(OCC(=O)O)c(C)c3)nc12 [Example 41]    class A
CCCOc1nc(OCC2CCCCC2)nc2oc(-c3cc(C)c(OCC(=O)O)c(C)c3)nc12 [Example 11]    class A

Query string: Which class does CCCOc1nc(Oc2ccc(C)nc2)nc2oc(-c3cc(C)c(OCC(=O)O)c(C)c3)nc12 [Example 32] fall in?
Result string: class C

Query string: Further, for CCCOc1nc(Oc2cc(F)cc(F)c2)nc2oc(-c3cc(C)c(OCC(=O)O)c(C)c3)nc12 [Example 50] ?
Result string: class B
